pIC50: −log10 of the molar value.
The entries that follow carry pIC50 values tested on PIK3CB (Human) (UniProt P42338), drawn from several published reports.

Worked cases, answers included:
Nc1nc2cc(-c3ccc4ncc(N5CC(N6CCNCC6)C5)nc4n3)ccc2o1 | < 5.00
C[C@H](Nc1nc(N)ncc1-c1cccc(S(C)(=O)=O)c1)c1cc2cccc(C(F)(F)F)c2c(=O)n1-c1ccccc1 | 5.00 to 6.00
Cc1cccc2cc(Cn3nc(I)c4c(N)ncnc43)n(-c3ccccc3C(C)C)c(=O)c12 | > 5.00

For the next question, use this compound.
Ask: Which value of pIC50 has been reported for `Cc1cccc2cc([C@H](C)Nc3nc(N)ncc3C(F)(F)F)n(-c3ccccc3)c(=O)c12` in the records?
Reply: > 5.00

* * *

Please find below IC50 measurements for PIK3CB (Human), combined from several publications.

Previously resolved entries follow.
C[C@H](NC(=O)c1c(N)nn2cccnc12)c1cc2sccc2c(=O)n1-c1ccccc1 | 1 to 10 µM
C[C@H](Nc1ncnc2scnc12)c1cc2cccc(Cl)c2c(=O)n1-c1cccc(C(F)(F)F)c1 | 1 to 10 µM
C=C(C)c1nn(Cc2cc3cccc(C)c3c(=O)n2-c2ccccc2)c2ncnc(N)c12 | < 10 µM

The following molecules each have a reported value; give each one's IC50.
1. Cc1cccc2cc([C@H](C)Nc3ncnc4cccnc34)nc(OCCN3CCCC3)c12
2. Cc1ccccc1-n1c(Cn2nc(C#CC3CC3)c3c(N)ncnc32)cc2nccc(C)c2c1=O
3. COc1ncc(-c2cccc3cc([C@H](C)NC(=O)c4c(N)nn5cccnc45)n(-c4ccccc4)c(=O)c23)cn1
4. Cc1nc2c(-c3nnc[nH]3)cc(-c3ccnc(N)c3)cc2n1-c1ccnc2cc(F)ccc12
5. C[C@@H](N)C(=O)N1CCN(c2cnc3ccc(-c4ccc5oc(N)nc5c4)nc3n2)CC1
6. C[C@H](NC(=O)c1c(N)nn2cccnc12)c1cc2cccc(Cl)c2c(=O)n1-c1ccc(F)c(F)c1
7. Nc1nc2cc(-c3cn4c(-c5cn[nH]c5)cnc4cn3)ccc2o1

Reply:
1. < 10 µM
2. > 10 µM
3. 1 to 10 µM
4. 0.18 µM
5. < 10 µM
6. 1 to 10 µM
7. < 10 µM

* * *

Literature-derived IC50 for PIK3CB (Human) (UniProt P42338) follows.

CCNC(=O)c1cnc2ccc(-c3ccc4oc(N)nc4c3)cn12 | < 1000 nM

Give IC50 for each listed item.
1. CC(=O)N1CCC(Nc2cnc3ccc(-c4ccc5oc(N)nc5c4)cc3n2)CC1
2. Cc1cc(-c2ccc3oc(N)nc3c2)cc2c(-c3ccncc3)cnn12
3. C[C@H](NC(=O)c1c(N)nn2cccnc12)c1cc2cccc(Cl)c2c(=O)n1-c1ccc(F)cc1

Reply:
< 10000 nM
< 1000 nM
100 to 1000 nM

Batch request: IC50 per item, same order as input.
1. Cc1nc2c(-c3nnc[nH]3)cc(-c3ccnc(N)c3F)cc2n1-c1ccnc2c(Cl)cccc12
2. Nc1nc2cc(-c3ccc4ncc(N5CC(C(=O)NC6CC6)C5)nc4c3)ccc2o1
3. Cc1cccc2cc([C@H](C)Nc3ncnc4[nH]nc(C(N)=O)c34)n(-c3ccccc3)c(=O)c12

Reply:
["2 nM", "< 1000 nM", "< 100 nM"]

Give IC50 for each of the items listed below.
1. Nc1nc2cc(-c3ccc4ncc(N5CCN(CC6CC6)CC5=O)nc4c3)ccc2o1
2. COc1cc(-c2nn(Cc3cc4cccc(C)c4c(=O)n3-c3ccccc3F)c3ncnc(N)c23)ccc1Cl

Reply:
> 10000 nM
> 10000 nM

* * *

The entries below pair compounds with IC50 values for PIK3CB (Human) (UniProt P42338), as found in several publications.

Previously resolved entries follow.
CC(=O)Nc1nc2ccc(-c3nn(Cc4cc5cccc(C)c5c(=O)n4C4CC4)c4ncnc(N)c34)cc2s1 | < 100 nM
CCCc1nc2c(-c3nnc[nH]3)cc(-c3ccnc(N)c3)cc2n1-c1ccnc2c(F)ccc(F)c12 | 10 nM

Need IC50 for each of these compounds.
1. C[C@H](NC(=O)c1c(N)nn2cccnc12)c1cc2cccc(Cl)c2c(=O)n1CC(O)CO (stereo partly shown)
2. C[C@H](Nc1ncnc2[nH]cnc12)c1cc2cccc(Cl)c2c(SCC[N+]2([O-])CCOCC2)n1
3. Cc1cccc2cc(Cn3nc(-c4cn[nH]c4)c4c(N)ncnc43)n(-c3ccccc3Cl)c(=O)c12
4. C[C@H](Nc1ncnc2cccnc12)c1cc2cccc(Cl)c2c(C(=O)N2CCNC(=O)C2)n1
5. Cc1nccn1C1CN(c2cnc3ccc(-c4ccc5oc(N)nc5c4)nc3n2)C1
6. C[C@H](Nc1nc(N)ncc1C#N)c1cc2cccc(-c3ccc(=O)n(C)c3)c2c(=O)n1-c1ccccc1
7. [2H]C1([2H])OC([2H])([2H])C([2H])([2H])N(c2nc(-c3cnc(N)nc3C(F)(F)F)cc(N3C(=O)OC[C@@H]3C)n2)C1([2H])[2H]
8. CC1CN(C(=O)c2nc([C@H](C)Nc3ncnc4cccnc34)cc3cccc(Cl)c23)CCO1 (stereo partly shown)

Reply:
1. < 100 nM
2. < 10000 nM
3. > 10000 nM
4. > 10000 nM
5. < 10000 nM
6. 1000 to 10000 nM
7. 7 nM
8. > 10000 nM

Please give IC50 for each item listed below.
1. C[C@H](NC(=O)c1c(N)oc2cccnc12)c1cc2cccc(Cl)c2c(=O)n1-c1ccccc1
2. COc1ccc(Oc2nc(-c3ccc(OC)c(OC)c3)nc3c2cnn3C)cc1OC
3. CC(=O)NC[C@@H]1CCN(C(=O)Nc2nc3c(s2)-c2nc(C(C)(C)C)ncc2CC3)[C@@H]1C(N)=O
4. CN1CCN(c2cnc3ccc(-c4ccc5sc(N)nc5c4)cc3n2)CC1
5. Cc1ccnc2cc(C(C)Nc3ncnc4scnc34)n(-c3ccccc3)c(=O)c12 (stereo not shown)
6. Cc1nc2c(C(N)=O)cc(-c3cc(N)nc(N)n3)cc2n1-c1ccnc2c(Cl)cccc12

Reply:
1: 1000 to 10000 nM; 2: 428 nM; 3: 510 nM; 4: < 100 nM; 5: 1000 to 10000 nM; 6: 1100 nM

* * *

# IC50 against PIK3CB (Human) (UniProt P42338), merged from multiple literature sources

Record excerpt, results attached:
CN1CCN(c2cnc3ccc(-c4ccc5oc(N)nc5c4)nc3c2)CC1 | < 100 nM
CCOc1nc(-c2cnc(N)nc2N[C@@H](C)c2cc3cccc(-c4cnc(OC)nc4)c3c(=O)n2-c2ccccc2)cs1 | 1000 to 10000 nM
CNC(=O)Nc1ccc(-c2nc(N3CCOCC3)nc3c2cnn3C2CCN(C(=O)OC)CC2)cc1 | > 100 nM

Please state IC50 for every molecule in the list that follows.
1. Nc1cc(-c2cc(-c3nnc[nH]3)c3nc(C4CC4)n(-c4ccnc5c(Cl)cccc45)c3c2)ccn1
2. Cc1nn(C)cc1-c1nc2[nH]c(C(=O)N3CCC(N(C)C)CC3)nc2c(N2CCOCC2)c1F
3. Cc1cccc2cc(C(C)Nc3ncnc4[nH]cnc34)n(C3CC3)c(=O)c12 (centres unmarked)
4. COc1ncc(-c2ccc3ncn(CC4(C(N)=O)CC4)c(=O)c3c2)cc1NS(=O)(=O)c1ccc(F)cc1Cl
5. C[C@H]1CN(c2cnc3ccc(-c4ccc5oc(N)nc5c4)cc3n2)CCN1
6. Cc1cc2c(=O)n(-c3ccccc3C)c(Cn3nc(-c4cccc(O)c4)c4c(N)ncnc43)nc2s1
7. COC(=O)c1nn(CC2=Cc3cccc(C)c3C(=O)C2c2ccccc2C)c2ncnc(N)c12 (centres unmarked)

Reply:
29 nM
> 10000 nM
< 1000 nM
82.4 nM
< 100 nM
> 10000 nM
> 10000 nM

* * *

pIC50: −log10 of the molar value.
Across several studies, compounds have been characterized by their pIC50 on PIK3CB (Human) (UniProt P42338); a selection follows.

The cases that follow already have their pIC50 on record.
CCOc1cncc(-c2cccc3cc([C@H](C)Nc4nc(N)ncc4C#N)n(-c4ccccc4)c(=O)c23)c1 | 5.00 to 6.00
C[C@H]1CN(C2CN(c3cnc4ccc(-c5ccc6oc(N)nc6c5)nc4n3)C2)CCN1C | < 5.00
Cc1cccc2cc([C@H](C)Nc3ncnc4[nH]cnc34)n(C3CCC3)c(=O)c12 | > 5.00
C[C@H](Nc1ccc2c(c1)OCCn1cc(N3CC(F)(F)COC3=O)nc1-2)C(N)=O | 5.34
CC(Nc1ncnc2[nH]cnc12)c1cc2ccccc2c(=O)n1-c1ccccc1 (centres unmarked) | > 5.00

Hello, I would appreciate it if you could give pIC50 for each entry below.
1. C[C@H](Nc1ncnc2scnc12)c1cc2cccc(Cl)c2c(CCN2CCOCC2)n1
2. C[C@H](NC(=O)c1c(N)nn2cccnc12)c1c(Br)c2cccc(Cl)c2c(=O)n1-c1ccccc1
3. Nc1nc2cc(-c3ccc4ncc(C(=O)NC5CC5)n4c3)ccc2o1

Reply:
> 6.00
5.00 to 6.00
> 5.00
